target: MAGI3_2, Q5TCQ9; assay: holdup assay; design: key: below the threshold = too weak to quantify, mostly under pKd 3.1 to 4; conditions: plain residues with an end cap or a label only (N-terminal biotin on a linker: ado-ado)
Sequence (Q5TCQ9 398-503): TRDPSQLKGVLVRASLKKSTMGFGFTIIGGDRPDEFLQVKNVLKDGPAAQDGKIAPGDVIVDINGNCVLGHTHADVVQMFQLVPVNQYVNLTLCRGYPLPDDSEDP

binder: VLYPREGTEV [FOXI1, Q12951]
pKd: 4.52

binder: NTANRRTTPV [CACNG2, Q9Y698]
pKd: 5.16

binder: IDESKKEWLI [CNTNAP2, Q9UHC6]
pKd: 4.06

binder: RQKEVRESKC [SCN8A, Q9UQD0]
pKd: 4.01

binder: DFLSTFHIRI [CIB2, O75838]
pKd: 4.3

binder: APIAGFSSFV [SDK2, Q58EX2]
pKd: 4.27

binder: ARESQKVSHV [FAM110B, Q8TC76]
pKd: 5.28

binder: NVYGIESVKI [GRIA2, P42262]
pKd: 3.62

binder: TGLWKHETTV [ADGRA3, Q8IWK6]
pKd: 5.48

binder: DPAESMESLV [PTPRG, P23470]
pKd: 4.84

binder: KRPEMTSSSV [MUC3A, MUC3B, Q02505;Q9H195]
pKd: 3.86

The measured values listed here are drawn from paper PMC9482650.
